Some compounds, each annotated with its measured growth.
test system: HOP-62 NSCLC; assay: NCI-60 one-dose screen, 48 h (100 = growth as untreated, 0 = no growth, -100 = all killed); settings: 10 µM
About 83,000 compounds went through this panel and 20% of them were active in at least one assay; those are over-represented in the sample as a whole.
Property Label: growth (%)

                                    compound  property_label  recorded_number
 0       Cn1ncc2cc3c(Nc4ccc(Cl)cc4)cccc3nc21          growth             89.3
 1  CC[C@@]1(OC(=O)CN(C)C)C(=O)OCc2c1cc1n(c2=O)Cc2cc3c(N)cccc3nc2-1          growth            -5.79
 2  Cc1cc(Cl)ccc1NC(=O)/C(Cl)=C1/Sc2ccccc2NC1=O          growth               91
 3  O=C1c2cccc3cc([N+](=O)[O-])cc(c23)C(=O)N1CCN1CCCC1          growth            -23.3
 4       Nc1nc(N)c2cc(Sc3ccc4ccccc4c3)ccc2n1          growth               65
 5              O=C(NC(=S)Nc1ccccn1)c1ccccc1          growth              106
 6       O=S(=O)(c1cc(Cl)ccc1O)c1cc(Cl)ccc1O          growth             83.7
 7  O=C1C(Cl)=C(Cl)C(Cl)(Cl)C(Cl)C1(Cl)Cl (stereo unspecified)          growth             98.5
 8  COc1ccc2c(c1)[nH]c1c(/C=C/c3ccccc3)nccc12          growth             71.8
 9    Cc1cc(N=C2C=CC(=[N+](C)C)C=C2)c(N)cc1N          growth              101
10                    O=Nc1ccc(Nc2ccccc2)cc1          growth              111
11          S=C1SCN(CCc2ccccc2)CN1CCc1ccccc1          growth             87.6
12       CN(C)c1ccc(/C=C/c2ccnc3ccccc23)cc1N          growth             77.2
13                    O=C1c2ccccc2CCC1(Br)Br          growth             96.5
14            N#CC(=C1C=CC(=NO)C=C1)c1ccccc1          growth             6.93
15       CN(C)CCNc1cccc2sc3ccc(O)cc3c(=O)c12          growth             46.2
16  COc1cccc(C(c2cc3c(cc2O)OCO3)N2CCOCC2)c1OC (stereo unspecified)          growth              101
17                       O=C(O)c1ccccc1.[Ag]          growth              108
18    O=C1C=CC(=O)N1c1ccc(N2C(=O)C=CC2=O)cc1          growth             86.8
19                C=C1N(C)c2ccc(Cl)cc2C1(C)C          growth             63.6
20  COc1ccc2oc(-c3ccc(Cl)cc3)c(N3CCN(C)CC3)c2c1          growth             51.9
21              Cc1c(-c2ccccc2)[nH]c2ccccc12          growth              104
22      CCC(C)(c1ccc(O)c(C)c1)c1ccc(O)c(C)c1          growth             84.5
23  Cc1cc(C)c(N2C(=O)CC(Sc3ccccc3N)C2=O)c(C)c1 (stereo unspecified)          growth             70.4
24  O=[N+]([O-])c1cc(S(=O)(=O)Nc2ccccc2)ccc1Cl          growth              104
25        COc1cc(N)ccc1Nc1c2ccccc2nc2ccccc12          growth             83.6
